Provide the recorded IC50 for the entries that follow.
molecular target: Bromodomain-containing protein 4 (Homo sapiens, UniProt O60885); test: Binding affinity to BRD4 bromodomain 1 in human Ramos cells; assay type: cell-based
One number for each entry, in µM.

COc1cc(CN(CCCCNC(=O)COc2cccc3c2C(=O)N(C2CCC(=O)NC2=O)C3=O)C(=O)C[C@@H]2N=C(c3ccc(Cl)cc3)c3c(sc(C)c3C)-n3c(C)nnc32)c([N+](=O)[O-])cc1OC (some centres not stated) | 7.6

Fill blank: measured IC50 of the molecule CCn1nc(C2CC2)cc1Nc1nc(C(=O)NCCCOCCOCCOCCCNc2cccc3c2C(=O)N(C2CCC(=O)NC2=O)C3=O)nc2[nH]c3cc(-c4c(C)noc4C)c(OC)cc3c12 (configuration not stated) is ____.
0.022

====

experiment: Half life of the compound in DMSO; assay type: physicochemical
parameter-measured: half-life (min)
Answers are plain numbers, in min.

Please report the recorded half-life for COc1cc(/N=N\c2cccc3c2CN(C2CCC(=O)NC2=O)C3=O)cc(OC)c1OCC(=O)NCCCCNC(=O)C[C@@H]1N=C(c2ccc(Cl)cc2)c2c(sc(C)c2C)-n2c(C)nnc21 (stereo partly specified) .
528

====

test: Cytotoxicity against human MCF10 cells assessed as measuring cell viability incubated for 48 hrs by CCK-8 assay; type: toxicity, cell-based
parameter-measured: IC50 at 48 h (nM)
Answers are plain numbers, in nM.

Requested field: IC50 at 48 h. Item: Cc1sc2c(c1C)C(c1ccc(Cl)cc1)=N[C@@H](CC(=O)NCCOCCOCCOCC(=O)NC(C)C(C)(C)C)c1nnc(C)n1-2 (stereo partly specified)
670

====

molecular target: Folliculin-interacting protein 1 (Homo sapiens, UniProt Q8TF40); test: Inhibition of FNIP1 in human HEK293T cells
Sequence (Q8TF40 whole entry): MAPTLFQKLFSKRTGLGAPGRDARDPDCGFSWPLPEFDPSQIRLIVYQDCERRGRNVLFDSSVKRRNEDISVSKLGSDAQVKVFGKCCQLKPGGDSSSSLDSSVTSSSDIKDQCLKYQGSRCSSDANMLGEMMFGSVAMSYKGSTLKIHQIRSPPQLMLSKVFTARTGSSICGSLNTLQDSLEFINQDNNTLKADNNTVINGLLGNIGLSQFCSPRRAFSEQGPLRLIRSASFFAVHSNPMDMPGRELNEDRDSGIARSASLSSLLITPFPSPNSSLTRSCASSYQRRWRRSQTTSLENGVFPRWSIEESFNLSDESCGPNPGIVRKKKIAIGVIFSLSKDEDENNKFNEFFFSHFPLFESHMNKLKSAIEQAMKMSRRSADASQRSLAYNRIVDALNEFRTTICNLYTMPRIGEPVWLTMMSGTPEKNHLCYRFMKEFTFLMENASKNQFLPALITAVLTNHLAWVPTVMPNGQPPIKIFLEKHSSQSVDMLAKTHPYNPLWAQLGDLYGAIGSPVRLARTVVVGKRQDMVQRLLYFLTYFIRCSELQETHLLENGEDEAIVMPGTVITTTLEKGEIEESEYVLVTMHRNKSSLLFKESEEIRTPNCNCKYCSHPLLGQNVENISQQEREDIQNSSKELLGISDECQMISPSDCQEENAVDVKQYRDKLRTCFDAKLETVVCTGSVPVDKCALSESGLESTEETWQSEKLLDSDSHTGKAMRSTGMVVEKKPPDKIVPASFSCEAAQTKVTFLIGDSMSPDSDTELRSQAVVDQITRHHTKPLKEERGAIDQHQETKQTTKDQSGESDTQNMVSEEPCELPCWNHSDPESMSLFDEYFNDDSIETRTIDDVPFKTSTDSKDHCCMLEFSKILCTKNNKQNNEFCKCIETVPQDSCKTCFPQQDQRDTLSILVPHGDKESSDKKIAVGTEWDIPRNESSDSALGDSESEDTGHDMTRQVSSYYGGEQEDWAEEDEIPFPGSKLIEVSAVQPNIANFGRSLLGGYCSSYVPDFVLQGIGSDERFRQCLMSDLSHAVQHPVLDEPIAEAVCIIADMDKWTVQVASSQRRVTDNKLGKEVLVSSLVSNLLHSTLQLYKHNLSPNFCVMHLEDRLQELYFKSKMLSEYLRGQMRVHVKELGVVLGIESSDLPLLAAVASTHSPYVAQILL
parameter-measured: IC50 (nM)
Numbers only, in nM.

// lookup IC50 for N#CCCN(C(=O)CCl)c1ccc2c(c1)OCCO2
670

====

biological target: Bromodomain-containing protein 4 (Homo sapiens); assay: Induction of BRD4 degradation in human HEK293T cells; type: cell-based
Consider the following compounds; for each one, report its log10 DC50.
In plain terms, each number is the log10 of measured DC50 in nM.

Cc1sc2c(c1C)C(c1ccc(Cl)cc1)=N[C@@H](CC(=O)NCCOCCOCCN1CCOc3cc(N(CCC#N)C(=O)CCl)ccc31)c1nnc(C)n1-2 | 3.04
Cc1c(C(=O)NCCCCCNc2cccc3c2C(=O)N(C2CCC(=O)NC2=O)C3=O)sc2c1C(c1ccc(Cl)cc1)=N[C@@H](CC(=O)OC(C)(C)C)c1nnc(C)n1-2 (some centres not stated) | 0.70
Cc1sc2c(c1C)C(c1ccc(Cl)cc1)=N[C@@H](CC(=O)NCCOCCOCCOCCN1CCOc3cc(N(CCC#N)C(=O)CCl)ccc31)c1nnc(C)n1-2 | 3.56
Cc1sc2c(c1C)C(c1ccc(Cl)cc1)=N[C@@H](CC(=O)NCCCNC(=O)CN1CCOc3cc(N(CCC#N)C(=O)CCl)ccc31)c1nnc(C)n1-2 | 2.91
Cc1sc2c(c1C)C(c1ccc(Cl)cc1)=N[C@@H](CC(=O)NCCOCCOCCOCCOCCN1CCOc3cc(N(CCC#N)C(=O)CCl)ccc31)c1nnc(C)n1-2 | 3.20
Cc1sc2c(c1C)C(c1ccc(Cl)cc1)=N[C@@H](CC(=O)NCCOCCNC(=O)CN1CCOc3cc(N(CCC#N)C(=O)CCl)ccc31)c1nnc(C)n1-2 | 2.91

Attention now turns to another entry.
Lab request: please report log10 DC50 under test system Bromodomain-containing protein 4 (Homo sapiens) for C#CCCCC(=O)N1CCOc2ccc(N(CCC#N)C(=O)CCl)cc21
2.40
